# systemTested: human PDE2A1 (Homo sapiens, UniProt O00408)
# Construct: GST; purchased BPS Bioscience (San Diego, Calif.) 60020; host or cells: insect cells
# Sequence (O00408 1-920 isoform O00408-2): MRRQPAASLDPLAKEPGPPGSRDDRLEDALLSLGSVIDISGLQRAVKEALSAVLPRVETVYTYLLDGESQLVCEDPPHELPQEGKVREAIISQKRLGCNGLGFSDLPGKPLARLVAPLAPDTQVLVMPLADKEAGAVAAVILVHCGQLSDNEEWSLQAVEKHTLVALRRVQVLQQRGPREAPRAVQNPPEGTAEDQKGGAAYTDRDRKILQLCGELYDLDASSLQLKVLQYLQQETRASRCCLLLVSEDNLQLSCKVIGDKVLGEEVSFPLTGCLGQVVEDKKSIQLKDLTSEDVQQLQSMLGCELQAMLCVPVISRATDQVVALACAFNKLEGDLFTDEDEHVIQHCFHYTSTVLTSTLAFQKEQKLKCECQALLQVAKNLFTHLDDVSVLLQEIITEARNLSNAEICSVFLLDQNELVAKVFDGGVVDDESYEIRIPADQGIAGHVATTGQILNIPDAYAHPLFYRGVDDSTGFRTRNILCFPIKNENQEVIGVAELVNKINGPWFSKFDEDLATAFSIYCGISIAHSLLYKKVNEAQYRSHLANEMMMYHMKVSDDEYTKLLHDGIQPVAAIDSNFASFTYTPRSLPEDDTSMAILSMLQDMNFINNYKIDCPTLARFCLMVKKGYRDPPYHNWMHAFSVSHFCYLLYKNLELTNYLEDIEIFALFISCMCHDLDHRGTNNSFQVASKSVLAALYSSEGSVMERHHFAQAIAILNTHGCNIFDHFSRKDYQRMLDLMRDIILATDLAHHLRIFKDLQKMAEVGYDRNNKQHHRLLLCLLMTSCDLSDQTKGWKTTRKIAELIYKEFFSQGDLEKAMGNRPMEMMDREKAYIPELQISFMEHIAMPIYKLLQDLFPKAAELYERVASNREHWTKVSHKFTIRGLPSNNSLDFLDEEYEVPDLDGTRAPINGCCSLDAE
# protocolDescription: IMAP FP PDE assay, human PDE2A1
# Assay type: biochemical
# statedConditions: Lab B; read-out: Human PDE2 Ki (nM) Lab B
metricName: Ki (nM)

[
  {
    "molecule": "Cc1nc2c(c(CF)nn2C(C)c2ccc(C(C)(C)C)cc2)c(=O)[nH]1 (single isomer, unassigned) [Example 214]",
    "systemTested": "human PDE2A1 (Homo sapiens, UniProt O00408)",
    "reportedValue": 307
  },
  {
    "molecule": "Cc1nc2c(c(CF)nn2C2(c3ccc(C(F)(F)F)cc3)CCC2)c(=O)[nH]1 [Example 202]",
    "systemTested": "human PDE2A1 (Homo sapiens, UniProt O00408)",
    "reportedValue": 2.9
  },
  {
    "molecule": "Cc1nc2c(c(C(F)F)nn2C(C)c2ccc(OC(F)(F)F)c(F)c2)c(=O)[nH]1 (single isomer, unassigned) [Example 170]",
    "systemTested": "human PDE2A1 (Homo sapiens, UniProt O00408)",
    "reportedValue": 0.48
  }
]

1 = Cc1nc2c(c(CO)nn2C2(c3ccc(C(F)(F)F)cc3)COC2)c(=O)[nH]1 [Example 79]
2 = Cc1nc2c(c(CO)nn2C(c2ccc(C(F)(F)F)cc2)C2(C)CC2)c(=O)[nH]1 (single isomer, unassigned) [Example 24]
Ask | Would you kindly point out which of 1 and 2 has the smaller Ki figure? Please respond with the label that marks your chosen entry.
Reply | 2
(2: 1.9 nM, 1: 23 nM)

* * *

# systemTested: Rhesus PDE2A3 (Macaca mulatta, UniProt B3VTJ2)
# Construct: made in house; host or cells: AD293 cells, transient transfection; supernatant of sonicated lysate
# Sequence (B3VTJ2 1-941): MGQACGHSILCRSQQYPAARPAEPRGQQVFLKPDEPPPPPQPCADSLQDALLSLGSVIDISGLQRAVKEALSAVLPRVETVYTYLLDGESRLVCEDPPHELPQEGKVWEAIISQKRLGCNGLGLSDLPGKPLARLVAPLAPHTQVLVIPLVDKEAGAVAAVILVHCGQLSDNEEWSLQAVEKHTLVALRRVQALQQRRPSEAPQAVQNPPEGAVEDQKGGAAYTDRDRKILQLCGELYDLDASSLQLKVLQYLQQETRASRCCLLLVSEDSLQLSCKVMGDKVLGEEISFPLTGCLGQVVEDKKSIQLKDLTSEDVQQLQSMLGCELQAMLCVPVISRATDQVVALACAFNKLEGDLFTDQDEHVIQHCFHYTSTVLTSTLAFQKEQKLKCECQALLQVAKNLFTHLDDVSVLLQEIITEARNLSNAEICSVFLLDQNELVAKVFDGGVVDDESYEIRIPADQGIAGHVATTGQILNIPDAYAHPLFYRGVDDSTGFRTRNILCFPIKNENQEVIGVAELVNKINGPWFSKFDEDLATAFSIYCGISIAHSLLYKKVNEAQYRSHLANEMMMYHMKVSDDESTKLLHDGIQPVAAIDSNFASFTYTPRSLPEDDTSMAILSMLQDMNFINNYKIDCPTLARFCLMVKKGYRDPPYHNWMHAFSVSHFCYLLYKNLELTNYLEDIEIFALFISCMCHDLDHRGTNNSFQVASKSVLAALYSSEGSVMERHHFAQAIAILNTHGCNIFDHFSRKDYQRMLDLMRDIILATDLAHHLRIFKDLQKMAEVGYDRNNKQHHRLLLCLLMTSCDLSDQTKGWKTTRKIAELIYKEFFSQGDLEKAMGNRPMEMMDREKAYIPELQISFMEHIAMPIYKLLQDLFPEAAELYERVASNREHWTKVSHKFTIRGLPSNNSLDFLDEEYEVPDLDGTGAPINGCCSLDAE
# protocolDescription: PDE2 fluorescence polarization (IMAP FP) inhibition assay, rhesus PDE2A3
# Assay type: biochemical, rhesus macaque
# statedConditions: Lab B; read-out: Rhesus PDE2 Ki (nM) Lab B
metricName: Ki (nM)

These solved cases illustrate the format of a correct answer.
[
  {
    "molecule": "Cc1nc2c(c(C(F)F)nn2C(c2ccc(OC(F)(F)F)c(F)c2)C2CC2)c(=O)[nH]1 (stereo not shown)",
    "unitInfo": "nM",
    "reportedValue": 1.2
  },
  {
    "molecule": "Cc1nc2c(c(CO)nn2C(c2ccc(C(F)(F)F)c(F)c2)C2CC2)c(=O)[nH]1 (single isomer, unassigned) [Example 90]",
    "unitInfo": "nM",
    "reportedValue": 90
  },
  {
    "molecule": "Cc1nc2c(c(CF)nn2C2(c3ccc(C(F)(F)F)cc3)CCC2)c(=O)[nH]1",
    "unitInfo": "nM",
    "reportedValue": 3.1
  },
  {
    "molecule": "Cc1nc2c(c(CO)nn2C(c2ccc(OC(F)(F)F)c(F)c2)C(C)C)c(=O)[nH]1 (single isomer, unassigned) [Example 126]",
    "unitInfo": "nM",
    "reportedValue": 6
  }
]

1 = Cc1nc2c(c(CO)nn2C(C)c2ccc(OC(F)(F)F)c(F)c2)c(=O)[nH]1 (single isomer, unassigned) [Example 10]
2 = Cc1nc2c(c(CF)nn2C(c2ccc(C(F)(F)F)cc2)C(C)C)c(=O)[nH]1 (single isomer, unassigned) [Example 212]
Ask | Would you kindly point out which of 1 and 2 has the smaller Ki figure? Please respond with the label that marks your chosen entry.
Reply | 2
(2: 54 nM, 1: 103 nM)

* * *

# systemTested: human PDE2A1 (Homo sapiens, UniProt O00408)
# Construct: GST; purchased BPS Bioscience (San Diego, Calif.) 60020; host or cells: insect cells
# protocolDescription: IMAP FP PDE assay, human PDE2A1
# Format: biochemical
# statedConditions: Lab A; read-out: Human PDE2 Ki (nM) Lab A
metricName: Ki (nM)

I = Cc1nn(C(C)c2ccc(C(F)(F)F)cc2)c2nc(C3CCCC3)[nH]c(=O)c12 (stereo not shown)
II = CCc1nc2c(c(C)nn2C(C)c2ccc(C(F)(F)F)cc2)c(=O)[nH]1 (stereo not shown)
III = Cc1nn(C(C)c2ccc(C(F)(F)F)cc2)c2nc(C3CC3)[nH]c(=O)c12 (stereo not shown)
IV = Cc1nc2c(c(C(O)C(F)(F)F)nn2C(C)c2ccc(C(F)(F)F)cc2)c(=O)[nH]1 (stereo not shown)
Ask | Rank the listed molecules, smallest Ki first and largest last. Output the labels ranked as instructed.
Reply | II, III, IV, I

* * *

# systemTested: Rhesus PDE2A3 (Macaca mulatta)
# Construct: made in house; host or cells: AD293 cells, transient transfection; supernatant of sonicated lysate
# protocolDescription: PDE2 fluorescence polarization (IMAP FP) inhibition assay, rhesus PDE2A3
# Assay type: biochemical, rhesus macaque
# statedConditions: Lab B; read-out: Rhesus PDE2 Ki (nM) Lab B
metricName: Ki (nM)

These solved cases illustrate the format of a correct answer.
[
  {
    "compound": "Cc1nc2c(c(CF)nn2C(c2ccc(OC(F)(F)F)c(F)c2)C2CC2)c(=O)[nH]1 (single isomer, unassigned) [Example 228]",
    "systemTested": "Rhesus PDE2A3 (Macaca mulatta)",
    "unitInfo": "nM",
    "Ki": 0.5
  },
  {
    "compound": "Cc1nc2c(c(CO)nn2C(c2ccc(C(C)(C)C)cc2)C2CC2)c(=O)[nH]1 (single isomer, unassigned) [Example 89]",
    "systemTested": "Rhesus PDE2A3 (Macaca mulatta)",
    "unitInfo": "nM",
    "Ki": 0.48
  },
  {
    "compound": "CC(C)c1nc2c(c(CO)nn2C(C)c2ccc(C(F)(F)F)cc2)c(=O)[nH]1 (racemic) [Example 296]",
    "systemTested": "Rhesus PDE2A3 (Macaca mulatta)",
    "unitInfo": "nM",
    "Ki": 36
  }
]

a = Cc1nc2c(c(CO)nn2C(C)c2ccc(C(F)(F)F)c(F)c2)c(=O)[nH]1 (single isomer, unassigned) [Example 13]
b = Cc1nc2c(c(C)nn2C(C)CNc2ccc(C(F)(F)F)cc2)c(=O)[nH]1 (centres unmarked) [Example 330]
Ask | Would you kindly point out which of a and b has the smaller Ki figure? Please respond with the label that marks your chosen entry.
Reply | a

I = Cc1nc2c(c(C)nn2C(C)CN(C)c2ccc(C(F)(F)F)cc2)c(=O)[nH]1 (centres unmarked) [Example 331]
II = Cc1nc2c(c(CO)nn2[C@H](c2ccc(C(C)(C)C)cc2)C(C)C)c(=O)[nH]1 [Example 159]
Ask | # argmax over Ki for candidates I and II Please respond with the label that marks your chosen entry.
Reply | I

* * *

# systemTested: human PDE2A1 (Homo sapiens, UniProt O00408)
# Construct: GST; purchased BPS Bioscience (San Diego, Calif.) 60020; host or cells: insect cells
# protocolDescription: IMAP FP PDE assay, human PDE2A1
# Assay type: biochemical
# statedConditions: Lab B; read-out: Human PDE2 Ki (nM) Lab B
metricName: Ki (nM)

[
  {
    "compound": "Cc1nc2c(c(C3CCCO3)nn2C(C)c2ccc(C(F)(F)F)cc2)c(=O)[nH]1 (single isomer, unassigned) [Example 72]",
    "reportedValue": 570
  }
]

1 = Cc1nc2c(c(CO)nn2C(C)c2ccc(C3(C(F)(F)F)CC3)cc2)c(=O)[nH]1 (single isomer, unassigned) [Example 81]
2 = Cc1nc2c(c(CF)nn2C(C)c2ccc(C(C)(C)C)cc2)c(=O)[nH]1 (single isomer, unassigned) [Example 215]
3 = Cc1nc2c(c(CO)nn2C(C)[C@H]2CC[C@H](C(F)(F)F)CC2)c(=O)[nH]1 (single isomer, unassigned) [Example 124]
4 = CC(c1ccc(C(F)(F)F)cc1)n1nc(-c2nnco2)c2c(=O)[nH]c(CC3CC3)nc21 (single isomer, unassigned) [Example 340]
Ask | Order the items by recorded Ki; the first position goes to the largest value. Output the labels ranked as instructed.
Reply | 3, 1, 4, 2

* * *

# systemTested: human PDE2A1 (Homo sapiens)
# Construct: GST; purchased BPS Bioscience (San Diego, Calif.) 60020; host or cells: insect cells
# protocolDescription: IMAP FP PDE assay, human PDE2A1
# Format: biochemical
# statedConditions: Lab B; read-out: Human PDE2 Ki (nM) Lab B
metricName: Ki (nM)

[
  {
    "compound": "Cc1nc2c(c(CC(O)C(F)(F)F)nn2C(C)c2ccc(C(F)(F)F)cc2)c(=O)[nH]1 (single isomer, unassigned) [Example 242]",
    "reportedValue": 434
  },
  {
    "compound": "Cc1nc2c(c(CO)nn2C(CC(F)(F)F)c2ccc(C(F)(F)F)cc2)c(=O)[nH]1 (single isomer, unassigned) [Example 97]",
    "reportedValue": 467
  },
  {
    "compound": "Cc1nc2c(c(CC(O)C(F)(F)F)nn2C(C)c2ccc(C(F)(F)F)cc2)c(=O)[nH]1 (single isomer, unassigned) [Example 241]",
    "reportedValue": 610
  },
  {
    "compound": "Cc1nc2c(c(CO)nn2C(c2ccc(C(F)(F)F)c(F)c2)C(C)C)c(=O)[nH]1 (single isomer, unassigned) [Example 87]",
    "reportedValue": 3.3
  },
  {
    "compound": "COc1cccc(Cc2nc3c(c(-c4nnco4)nn3C(C)c3ccc(C(F)(F)F)cc3)c(=O)[nH]2)c1 (single isomer, unassigned) [Example 344]",
    "reportedValue": 26
  },
  {
    "compound": "Cc1nc2c(c(/C=N\\O)nn2C(C)c2ccc(C(F)(F)F)cc2)c(=O)[nH]1 (stereo not shown) [Example 251]",
    "reportedValue": 7.2
  },
  {
    "compound": "Cc1nc2c(c(CO)nn2C(C)c2ccc(C(F)(F)F)nn2)c(=O)[nH]1 (single isomer, unassigned) [Example 146]",
    "reportedValue": 58
  },
  {
    "compound": "Cc1nc2c(c(C(F)F)nn2C(C)c2ccc(C(F)(F)F)cc2F)c(=O)[nH]1 (single isomer, unassigned) [Example 185]",
    "reportedValue": 303
  }
]

P = COCc1nc2c(c(C(F)F)nn2C(C)c2ccc(C(F)(F)F)cc2)c(=O)[nH]1 (single isomer, unassigned) [Example 188]
Q = Cc1nc2c(c(CO)nn2C(C)c2ccc(CC(F)(F)F)cc2)c(=O)[nH]1 (single isomer, unassigned) [Example 122]
R = CC(c1ccc(S(F)(F)(F)(F)F)cc1)n1nc(CO)c2c(=O)[nH]c(C3CC3)nc21 (single isomer, unassigned) [Example 316]
S = Cc1nc2c(c(CC(F)(F)F)nn2C(C)c2ccc(C(F)(F)F)cc2)c(=O)[nH]1 (single isomer, unassigned) [Example 65]
Ask | Order the items by recorded Ki; the first position goes to the largest value. Output the labels ranked as instructed.
Reply | Q, R, S, P
